# TEST_SYSTEM: F876L mutant Androgen Receptor (AR-F876L) (Homo sapiens, UniProt P10275, F877L)
# Construct: expressed in transfected cells; host or cells: LNCaP (LNCaP F876L)
# Sequence (P10275 whole entry F877L): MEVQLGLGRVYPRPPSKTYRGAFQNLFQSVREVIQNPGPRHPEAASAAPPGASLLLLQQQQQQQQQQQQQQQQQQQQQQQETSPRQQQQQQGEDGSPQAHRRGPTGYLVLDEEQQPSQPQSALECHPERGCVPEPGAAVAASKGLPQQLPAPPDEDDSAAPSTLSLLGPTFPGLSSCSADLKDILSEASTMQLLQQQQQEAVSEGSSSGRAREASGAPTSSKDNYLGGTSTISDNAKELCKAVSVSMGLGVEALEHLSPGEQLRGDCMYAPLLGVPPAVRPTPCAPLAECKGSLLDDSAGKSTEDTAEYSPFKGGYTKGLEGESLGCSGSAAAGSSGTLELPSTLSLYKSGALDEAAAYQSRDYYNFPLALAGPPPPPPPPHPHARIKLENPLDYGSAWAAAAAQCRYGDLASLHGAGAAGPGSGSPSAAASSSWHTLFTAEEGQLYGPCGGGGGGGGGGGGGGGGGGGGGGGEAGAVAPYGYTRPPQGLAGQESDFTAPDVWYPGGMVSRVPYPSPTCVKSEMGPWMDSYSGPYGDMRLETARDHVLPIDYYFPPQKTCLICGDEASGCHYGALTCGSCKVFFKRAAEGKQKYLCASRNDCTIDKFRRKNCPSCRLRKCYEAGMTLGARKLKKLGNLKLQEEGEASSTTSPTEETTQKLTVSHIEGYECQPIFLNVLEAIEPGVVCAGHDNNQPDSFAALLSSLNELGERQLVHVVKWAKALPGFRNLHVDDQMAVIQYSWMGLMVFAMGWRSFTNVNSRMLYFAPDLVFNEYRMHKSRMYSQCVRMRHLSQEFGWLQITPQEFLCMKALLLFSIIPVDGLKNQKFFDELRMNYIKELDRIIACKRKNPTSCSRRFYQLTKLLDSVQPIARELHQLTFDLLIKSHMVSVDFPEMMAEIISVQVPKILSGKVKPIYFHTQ
# PROCEDURE_SUMMARY: LNCaP-AR-F876L AG reporter assay (ARE firefly luciferase, agonist mode)
# Format: cell-based
# SETUP_CONDITIONS: maximum % stimulation (agonist response) over tested concentration range; read-out: LNCaP-AR-F876L AG MAX % Stim
PROPERTY_NAME: Emax (%)
Numeric only. Scale: %

Reference set (6 entries):
[[record]]
structure_notation = "N#Cc1ncc(N2C(=O)C3(CCC3)N(c3ccc(C(=O)NCCCN4CCCC4)c(F)c3)C2=S)cc1C(F)(F)F"
test_system = "F876L mutant Androgen Receptor (AR-F876L) (Homo sapiens, UniProt P10275, F877L)"
unit = "%"
obs_value = 3.9

[[record]]
structure_notation = "COc1cc(F)ccc1N1C(=S)N(c2cnc(C#N)c(C(F)(F)F)c2)C(=O)C12CCC2"
test_system = "F876L mutant Androgen Receptor (AR-F876L) (Homo sapiens, UniProt P10275, F877L)"
unit = "%"
obs_value = 1.5

[[record]]
structure_notation = "Cc1ccc(CNC(=O)c2ccc(N3C(=S)N(c4cnc(C#N)c(C(F)(F)F)c4)C(=O)C34CCC4)cc2F)o1"
test_system = "F876L mutant Androgen Receptor (AR-F876L) (Homo sapiens, UniProt P10275, F877L)"
unit = "%"
obs_value = 0.3

[[record]]
structure_notation = "CNC(=O)c1ccc(N2C(=S)N(c3cnc(C#N)c(C)c3)C(=O)C23CCC3)cc1C"
test_system = "F876L mutant Androgen Receptor (AR-F876L) (Homo sapiens, UniProt P10275, F877L)"
unit = "%"
obs_value = -0.1

[[record]]
structure_notation = "Cc1cc(N2C(=O)C3(CCC3)N(c3ccc(OC4CCNCC4)cc3)C2=S)cnc1C#N"
test_system = "F876L mutant Androgen Receptor (AR-F876L) (Homo sapiens, UniProt P10275, F877L)"
unit = "%"
obs_value = 0.5

[[record]]
structure_notation = "Cc1cc(N2C(=O)C3(CCC3)N(c3ccc(C(=O)Nc4cncc(F)c4)c(F)c3)C2=S)cnc1C#N"
test_system = "F876L mutant Androgen Receptor (AR-F876L) (Homo sapiens, UniProt P10275, F877L)"
unit = "%"
obs_value = 3.1


Give measured Emax for N#Cc1ncc(N2C(=O)C3(CCC3)N(c3ccc(C(=O)NCCCO)c(F)c3)C2=S)cc1C(F)(F)F (F876L mutant Androgen Receptor (AR-F876L) (Homo sapiens, UniProt P10275, F877L)).
0.2

Give measured Emax for CN1CCC(Oc2ccc(N3C(=S)N(c4cnc(C#N)c(C(F)(F)F)c4)C(=O)C34CCC4)cc2)CC1 (F876L mutant Androgen Receptor (AR-F876L) (Homo sapiens, UniProt P10275, F877L)).
0.8

Give measured Emax for Cc1cc(N2C(=O)C3(CCC3)N(c3ccc(OCCc4ccccn4)c(F)c3)C2=S)cnc1C#N (F876L mutant Androgen Receptor (AR-F876L) (Homo sapiens, UniProt P10275, F877L)).
0.1

Give measured Emax for Cc1cc(N2C(=O)C3(CCC3)N(c3ccc(OC4CCSCC4)cc3)C2=S)cnc1C#N (F876L mutant Androgen Receptor (AR-F876L) (Homo sapiens, UniProt P10275, F877L)).
0.1

Give measured Emax for CCN1CCC(Oc2ccc(N3C(=S)N(c4cnc(C#N)c(C)c4)C(=O)C34CCC4)cc2)CC1 (F876L mutant Androgen Receptor (AR-F876L) (Homo sapiens, UniProt P10275, F877L)).
0.7

Give measured Emax for Cc1cc(N2C(=O)C3(CCC3)N(c3ccc(OC4CCN(C)CC4)c(F)c3)C2=S)cnc1C#N (F876L mutant Androgen Receptor (AR-F876L) (Homo sapiens, UniProt P10275, F877L)).
3.5

Give measured Emax for Cc1ccc(N2C(=S)N(c3cnc(C#N)c(C(F)(F)F)c3)C(=O)C23CCC3)cc1F (F876L mutant Androgen Receptor (AR-F876L) (Homo sapiens, UniProt P10275, F877L)).
3.4

Give measured Emax for COc1ccc(N2C(=S)N(c3cnc(C#N)c(C)c3)C(=O)C23CCC3)cc1 (F876L mutant Androgen Receptor (AR-F876L) (Homo sapiens, UniProt P10275, F877L)).
0.7

Give measured Emax for Cc1cc(N2C(=O)C3(CCC3)N(c3ccc(C(=O)Nc4ccnn4C)c(F)c3)C2=S)cnc1C#N (F876L mutant Androgen Receptor (AR-F876L) (Homo sapiens, UniProt P10275, F877L)).
0.1

Give measured Emax for Cc1cc(N2C(=O)C(C)(C)N(c3ccc(OC4CCN(C)CC4)cc3)C2=S)cnc1C#N (F876L mutant Androgen Receptor (AR-F876L) (Homo sapiens, UniProt P10275, F877L)).
-0.6

Give measured Emax for N#Cc1ncc(N2C(=O)C3(CCC3)N(c3ccc(C(=O)NCc4cccc(Cl)c4)c(F)c3)C2=S)cc1C(F)(F)F (F876L mutant Androgen Receptor (AR-F876L) (Homo sapiens, UniProt P10275, F877L)).
1.5

Give measured Emax for Cc1cc(N2C(=O)C3(CCC3)N(c3ccc(C(=O)Nc4ccc(F)cc4)c(F)c3)C2=S)cnc1C#N (F876L mutant Androgen Receptor (AR-F876L) (Homo sapiens, UniProt P10275, F877L)).
1.3

Give measured Emax for Cc1cc(N2C(=O)C3(CCC3)N(c3ccc(C(=O)NCc4cccs4)c(F)c3)C2=S)cnc1C#N (F876L mutant Androgen Receptor (AR-F876L) (Homo sapiens, UniProt P10275, F877L)).
0.3

Give measured Emax for CCOC(=O)CNC(=O)c1ccc(N2C(=S)N(c3cnc(C#N)c(C(F)(F)F)c3)C(=O)C23CCC3)cc1F (F876L mutant Androgen Receptor (AR-F876L) (Homo sapiens, UniProt P10275, F877L)).
0.3

Give measured Emax for N#Cc1ncc(N2C(=O)C3(CCC3)N(c3ccc(C4CCOCC4)cc3)C2=S)cc1C(F)(F)F (F876L mutant Androgen Receptor (AR-F876L) (Homo sapiens, UniProt P10275, F877L)).
1.4

Give measured Emax for Cc1cc(N2C(=O)C3(CCC3)N(c3ccc(C(=O)Nc4ccc(Cl)cc4)c(F)c3)C2=S)cnc1C#N (F876L mutant Androgen Receptor (AR-F876L) (Homo sapiens, UniProt P10275, F877L)).
1

Give measured Emax for Cc1cc(N2C(=O)C3(CCC3)N(c3ccc(O)cc3)C2=S)cnc1C#N (F876L mutant Androgen Receptor (AR-F876L) (Homo sapiens, UniProt P10275, F877L)).
0.5

Give measured Emax for Cc1cc(N2C(=O)C3(CCC3)N(c3ccc(OC4CCS(=O)(=O)CC4)cc3)C2=S)cnc1C#N (F876L mutant Androgen Receptor (AR-F876L) (Homo sapiens, UniProt P10275, F877L)).
0

Give measured Emax for N#Cc1ncc(N2C(=O)C3(CCC3)N(c3cccc(Oc4ccccc4)c3)C2=S)cc1C(F)(F)F (F876L mutant Androgen Receptor (AR-F876L) (Homo sapiens, UniProt P10275, F877L)).
0.2

Give measured Emax for N#Cc1ncc(N2C(=O)C3(CCC3)N(c3ccc(OC4CCOCC4)cc3)C2=S)cc1C(F)(F)F (F876L mutant Androgen Receptor (AR-F876L) (Homo sapiens, UniProt P10275, F877L)).
2.7

Give measured Emax for N#Cc1ncc(N2C(=O)C3(CCC3)N(c3ccc(C(=O)N4CCCC4)c(F)c3)C2=S)cc1C(F)(F)F (F876L mutant Androgen Receptor (AR-F876L) (Homo sapiens, UniProt P10275, F877L)).
0.4
